- ASSAY_COMMENT: amyloid nucleation score (Sup35N fusion, yeast selection) (log enrichment); library NNK2; higher = more nucleation; inactive = no reads after selection;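 note: zero at mode of non-aggregating sequences after 7 days selection at 30°C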
Param threshold (2) applies to amyloid nucleation score; output 1 (yes) when value >= threshold, 0 (no) when value < threshold.

LWDLRSEYKFYINMDHFMTV ... 0 (no)
RFWDQACQAFMSSMVEGPVD ... 0 (no)
YSGRSAWLMLCGRPVRR ... 0 (no)
IYYGGLKHARVPVTRFEGSP ... 1 (yes)

IN: Exam item: decide whether the reported amyloid nucleation score for `CSFGPIVAD` is at least 2.
OUT: 0 (no)

IN: Assess whether reported amyloid nucleation score for `GLRYIS` sits at 2 or higher.
OUT: 0 (no)

====

- ASSAY_COMMENT: amyloid nucleation score (Sup35N fusion, yeast selection) (log enrichment); library NNK1; higher = more nucleation; inactive = no reads after selection
Where amyloid nucleation score equals or exceeds 0.3, the correct label is 1.0; where it does not, the label is 0.0.

ISICDVYLWVHMRYSL ... 1.0
PFYLDSGADVTEPGHLGFYG ... 0.0
RLSSSCSSAEDWYRKGHLLK ... 0.0
CMSVETLTEMVYFKSYTL ... 0.0
IWWVDGVKTGSF ... 1.0
LVQVWLKN ... 1.0

Please find the next substance below.
IN: State whether the measured amyloid nucleation score reaches 0.3, counting equality as reaching it, for `TYRFGCTLPLLRMCFIP`
OUT: 1.0

====

- ASSAY_COMMENT: amyloid nucleation score (Sup35N fusion, yeast selection) (log enrichment); library NNK3; higher = more nucleation; inactive = no reads after selection
ASSAY_METRIC: amyloid nucleation score

Consider the reported amyloid nucleation score for these substances:
NYVICVYFMAGVSACMTLLV ... inactive
RWYAVLYHLV ... inactive
SGGGIPGTLGSGDPSSPNTQ ... inactive
VGNWYGKTIGMSSLEFLMSR ... inactive
FLNCFSC ... 2.69

The measured amyloid nucleation score associated with `SGTNLFRF` reads inactive

# amyloid nucleation score (substance: `ACANYCGSFSTTTAEYDVPS` ) is inactive

Reported amyloid nucleation score ( `LTSLLTARKNCTNFHN` ) = inactive

The reported value for `GLPSFRHSF` in terms of amyloid nucleation score is inactive

Just so you know, measured amyloid nucleation score for `SNFVVSNPISSRGTMNIRII` came out at inactive

Noted for `YMLMGMVLRDRDRT` : its amyloid nucleation score reads 1.69

GET /value?item= `RSVKVYLRCSLSNCVILLGT` &field=amyloid nucleation score returns 2.58

Lookup result for `YKFIRFFSSMT` ; measured amyloid nucleation score: inactive

Summary for this substance, `WRFGRVFDWGRLHLGVDRCR` : amyloid nucleation score is inactive

Kindly note the recorded amyloid nucleation score for `YRTDDERCDMTTVLYSYMEY` , which is inactive

Entry `YSVMSNHETIYYMSVS` , amyloid nucleation score reported as inactive

====

- ASSAY_COMMENT: amyloid nucleation score (Sup35N fusion, yeast selection) (log enrichment); library NNK3; higher = more nucleation; inactive = no reads after selection
ASSAY_METRIC: amyloid nucleation score

Recorded results for 10 substances are shown here.
FPYNGALSFCIWYRVASRVY ... inactive
WRGYPFAPVFYLI ... inactive
HDKAVQEVGQGCGE ... 1.34
VTVCRHTPILIKKPM ... inactive
VRSHPCSGGTLVGWDSYW ... 1.01
QSYVRQF ... inactive
VAVVIEYMKLVVLG ... inactive
TVFSCYSWELEMMLWDGSYM ... inactive
SIVQLNYTELAVKWSLVS ... inactive
VYAVIDWRDLCF ... inactive

// sample `IFHLKIAYFPNYGRITLYYL` , its amyloid nucleation score was 1.65

amyloid nucleation score recorded for this substance, `SLMNPNFFLHMVIRTNCYLK` , is inactive

Value of measured amyloid nucleation score for the entry `SVMSLDVVMVVRYFY` : 0.999

Sample `VSVEFRSDSARWGNDVCEET` ; amyloid nucleation score observed: inactive

// `FRGCYRFELLSDTCISRELV` : amyloid nucleation score value = inactive

====

- ASSAY_COMMENT: amyloid nucleation score (Sup35N fusion, yeast selection) (log enrichment); library NNK2; higher = more nucleation; inactive = no reads after selection
Classify as follows. Reported amyloid nucleation score greater than or equal to 1: class 1. Reported amyloid nucleation score below: class 0.

Recorded results for 8 substances are shown here.
WRSGGQPCVSGSWSVTNLCV ... class 1
DSVIGSLCPNCYGWRISKVM ... class 0
LSLALDRQELAVHLFVLTCY ... class 0
PCPSISGLFASAYPITRLSL ... class 0
ALCWVGSYSACLRIFKPSRM ... class 0
WFMFCNLGLGTPIGMITLRS ... class 0
IMCLKFLNPTHFGCVGVCML ... class 0
WCGYCLTFLFPAQKQEAVLR ... class 0

IN: Record `VCCAFLCASRAVVYTGKDMH` ; criterion: amyloid nucleation score no lower than 1. Met?
OUT: class 1

IN: Entry `IPWNQRRKW` : is its amyloid nucleation score no less than 1?
OUT: class 0

IN: Does `IPWVNRTPCSTCGGFRFTDP` have a reported amyloid nucleation score of at least 1?
OUT: class 1

IN: Is amyloid nucleation score for `SVCELKW` at or above 1?
OUT: class 0

IN: # check: amyloid nucleation score of `YENFLLLL` is greater than or equal to 1
OUT: class 0

IN: State whether the measured amyloid nucleation score reaches 1, counting equality as reaching it, for `RFKSNNRPCWHCHPLLGFRT`
OUT: class 1

IN: Determine whether measured amyloid nucleation score meets or exceeds 1 for `ASMDSSVPRAGDAGRSDMSS`
OUT: class 1

IN: Is amyloid nucleation score at least 1? Consider `VSLKFLQGGAKDLRWSCGGE`
OUT: class 1

IN: Kindly determine if amyloid nucleation score recorded for `YFSYPC` is above or exactly 1.
OUT: class 0

IN: Is it the case that `PDPVPM` has amyloid nucleation score reaching or exceeding 1?
OUT: class 0

====

- ASSAY_COMMENT: amyloid nucleation score (Sup35N fusion, yeast selection) (log enrichment); library NNK1; higher = more nucleation; inactive = no reads after selection
Classify as follows. Reported amyloid nucleation score greater than or equal to 0.3: Criterion met. Reported amyloid nucleation score below: Criterion not met.

ISCYVRISIILFLEKMVLRA ... Criterion not met
TSGFLPLKTKMF ... Criterion not met
IGSLGMCLQCYGAGV ... Criterion not met

IN: Please indicate if the recorded amyloid nucleation score for `TSSVGMWGQWYSRWNSRKCN` meets or exceeds 0.3.
OUT: Criterion not met

IN: Check if amyloid nucleation score >= 0.3 (inclusive). Item: `RPRHIFDNSKVYNMGPYFYD`
OUT: Criterion met

====

- ASSAY_COMMENT: amyloid nucleation score (Sup35N fusion, yeast selection) (log enrichment); library NNK2; higher = more nucleation; inactive = no reads after selection
We use -0.007 as the dividing line for amyloid nucleation score: on or above the line is 1.0, below is 0.0.

Here are 4 substances together with their reported answers.
RLKVIFRSLFHLLRAVRGSH ... 0.0
LSRNYFVSVLFFSTVRMALA ... 0.0
HDTESTLVTVLRAFLHRCDY ... 1.0
VLMDASTSVYTRSLMWKYMR ... 0.0

IN: In plain terms: is recorded amyloid nucleation score at least -0.007 for `ECGDRIL` ?
OUT: 1.0

IN: Evaluate `FIADLSDMW` : amyloid nucleation score at minimum -0.007?
OUT: 0.0

IN: Please check the record `VRTPEYSLHLVAS` and state if its amyloid nucleation score is at or above -0.007.
OUT: 0.0

IN: Hello, I need to know if `GIIDMSRLVMHQITEPLLSQ` has measured amyloid nucleation score not below -0.007. Thanks!
OUT: 1.0

IN: Reported amyloid nucleation score at or above -0.007? `VFRFNFLRGLKIQVLSRFGW`
OUT: 0.0

IN: Item `LTVYVFSDFSRATVGPSRWL` with amyloid nucleation score of -0.007 or above?
OUT: 1.0

IN: Is the recorded value of amyloid nucleation score equal to or greater than -0.007 for this substance? `AFLSLFNSYWYFVFAKLF`
OUT: 0.0

IN: For this substance, is measured amyloid nucleation score -0.007 or higher? `IWSYSSFGVD`
OUT: 0.0

IN: Is amyloid nucleation score at least -0.007? Consider `DYGLVCY`
OUT: 1.0

IN: Confirm if amyloid nucleation score reported for the substance `FINKIKVRLNLMSGSANRLL` is -0.007 or above.
OUT: 1.0

IN: Answer whether amyloid nucleation score of `VHPGMNLDMSNACSAFVRTW` is greater than or equal to -0.007.
OUT: 0.0

IN: amyloid nucleation score >= -0.007 for `RGRAFGPEIRNKSLGLTYPV` ?
OUT: 1.0

IN: Quick check: does `GFHSCG` have amyloid nucleation score greater than or equal to -0.007?
OUT: 1.0

Data provenance: the supplement of paper PMC12042874
